- System: T1, human CD8 alpha (CD8A) on primary human CD8+ T cells (human, UniProt P01732 22-235)
- T1 construct: whole, on cells; also called hCD8A
- T1 sequence (P01732 22-235): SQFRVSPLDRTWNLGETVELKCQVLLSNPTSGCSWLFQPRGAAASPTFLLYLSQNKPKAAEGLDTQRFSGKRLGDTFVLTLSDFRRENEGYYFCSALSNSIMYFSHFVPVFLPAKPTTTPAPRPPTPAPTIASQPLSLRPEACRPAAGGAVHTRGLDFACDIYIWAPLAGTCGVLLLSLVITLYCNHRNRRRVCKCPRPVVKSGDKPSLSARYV
- Run description: flow cytometry, human CD8+ T cells
Result type: Human T-cell Binding 0.2 uM (MFI)
Number in MFI, nothing else.

Binder: P283HR7P1368_H1 (designed binder, FN3 domain) LPAPKNLVVSRVTEDSARLSWTAPDAAFDSFGIAYIETARWGEAISLTVPGSERSYDLTGLKPGTEYNVVIIGVKGGTPSHPLGAPFTT
Data value: 2460

Binder: P283FR9P1366_F9 (designed binder, FN3 domain) LPAPKNLVVSRVTEDSARLSWTAPDAAFDSFHIFYPELPIAGEAIVLTVPGSERSYDLTGLKPGTEYWVNISGVKGGYESWPLSAIFTT
Data value: 6300

Binder: P283ER9P1365_B6 (designed binder, FN3 domain) LPAPKNLVVSRVTEDSARLSWTAPDAAFDSFGIGYAEPVVTGEAISLSVPGSERSYDLTGLKPGTEYWVVIIGVKGGINSYPLGAIFTT
Data value: 3400

Binder: P283ER9P1365_G3 (designed binder, FN3 domain) LPAPKNLVVSRVTEDSARLSWTAPDAAFDSFGISYYEWAPNGEAIQLSVPGSERSYDLTGLKPGTEYHVVIIGVKGGEPSHPLGAIFTT
Data value: 2920

What does the record list as Human T-cell Binding 0.2 uM (MFI) for P283BR9P1363_G2 (designed binder, FN3 domain) LPAPKNLVVSRVTEDSARLSWPKNQTNRHFDSFLIQYQESEKVGEAIVLTVPGSERSYDLTGLKPGTEYTVSIYGVDVKWEGNRPVASNPLSAIFTT ?
3230

Reference for the values: patent US20210032312A1
